Reference source: PubChem BioAssay (NCI)

The reader will find reported growth values listed item by item below.
Test system: OVCAR-4 ovarian
Assay: NCI-60 one-dose screen, 48 h (100 = growth as untreated, 0 = no growth, -100 = all killed)
Conditions: 10 µM unless noted
The panel holds about 83,000 compounds, 20% with a hit somewhere; the sample as a whole holds those more often.
Write it as a number; the unit % goes unstated.

Some molecules with recorded growth:
chemical_string=COc1cc(-c2nn(-c3ccccc3)cc2-c2ccnc(NCCNS(=O)(=O)c3ccc(Cl)cc3)n2)ccc1Cl output_unit=% result_number=38.3
chemical_string=COC(=O)c1ccc(CSc2nnc(-c3c(C)nc4ccc(C)cn34)o2)cc1 output_unit=% result_number=94
chemical_string=COC(=O)/C=C1\S/C(=N\NS(=O)(=O)c2ccc(C)cc2)N(c2ccccc2)C1=O output_unit=% result_number=91

input: Indicate its recorded growth; the molecule in question is Cc1c(Cl)cc(-n2c(=O)c3ccccc3c3ccccc3c2=O)cc1Cl
output: 104

input: Indicate its recorded growth; the molecule in question is O=c1c2cc(F)ccc2sc2c(NCCN3CCCCC3)nc3ccccc3c12
output: 50.7

input: Indicate its recorded growth; the molecule in question is O=C(Nc1ccc(Nc2ccncc2)cc1)c1ccc(C(=O)Nc2ccc(Nc3ccncc3)cc2)cc1
output: 68.1

input: Indicate its recorded growth; the molecule in question is Cc1cccc(NC(=O)CSc2nc3ccccc3[nH]2)c1
output: 93.2

* * *

Test system: LOX IMVI melanoma
Assay: NCI-60 one-dose screen, 48 h (100 = growth as untreated, 0 = no growth, -100 = all killed)
Conditions: 10 µM unless noted
Compounds without any hit were thinned out: in the full panel of roughly 83,000, 20% have a hit. The source made the active and inactive calls. How the source made its calls: active means growth percent below 10; inactive means the rest.
The reader will find reported growth values listed item by item below.

Some compounds with recorded growth:
compound=Cc1ccc(-c2c(-c3ccccc3)c(=O)oc3ccc(C)cc23)cc1 result="96.2% (inactive)"
compound=O=C(Nc1ccc(Cl)cc1)Nc1ccc(Cl)c(C(F)(F)F)c1 result="3.49% (active)"

input: Indicate its recorded growth; the compound in question is CCN(CCNc1ccc(C)c2sc3ccccc3c(=O)c12)CC(C)(C)O
output: 54.4% (inactive)

input: Indicate its recorded growth; the compound in question is COC(=O)[C@]12CC[C@@H](C)[C@H](C)[C@@H]1C1=CC[C@@H]3[C@@]4(C)C(C=O)=C[C@@](C)(COS(C)(=O)=O)C4[C@H](O)C[C@@]3(C)[C@]1(C)CC2 (stereo not given in full)
output: -97.3% (active)

input: Indicate its recorded growth; the compound in question is CC(=O)OC1CCC2(C)C(=CC3C4CCC(=O)C4(C)CCC32)C1 (stereo not given)
output: 100% (inactive)

input: Indicate its recorded growth; the compound in question is COc1ccc(C(=NN=C(N)N)c2ccc(OC)cc2)cc1
output: 15.8% (inactive)

input: Indicate its recorded growth; the compound in question is Cn1ccc2c(c1=O)C(=O)c1nccc3c1c-2nc1ccccc13
output: -98.4% (active)

input: Indicate its recorded growth; the compound in question is CS(=O)(=O)c1ccc(Nc2nc(N[C@H]3CCCC[C@H]3N)nc3cc[nH]c(=O)c23)cc1
output: -10.7% (active)

input: Indicate its recorded growth; the compound in question is COc1cc2nc(Cl)nc(Nc3ccc(S(=O)(=O)Nc4nccs4)cc3)c2cc1OC
output: 86.5% (inactive)

input: Indicate its recorded growth; the compound in question is Cc1nn(-c2ccccc2)c(Cl)c1/C=C(/NC(=O)c1ccccc1)c1nc2ccccc2[nH]1
output: 96.8% (inactive)

input: Indicate its recorded growth; the compound in question is N=C1C(c2nc(-c3ccc(Br)cc3)cs2)=C(O)CN1Cc1cccnc1
output: 85.3% (inactive)

input: Indicate its recorded growth; the compound in question is Cc1c2c(c(C)c3c1oc1cc(O)ccc13)C(=O)N(CCN1CCCCC1)C2=O
output: 95.4% (inactive)

input: Indicate its recorded growth; the compound in question is COc1ccc2[nH]c(O)c(/C=c3/cc4c(c(-c5ccc(F)c(OC)c5)n3)=Nc3ccccc3-4)c2c1
output: -17.2% (active)

input: Indicate its recorded growth; the compound in question is c1csc(-c2c3ccc(=[N+]4CCCCC4)cc-3oc3cc(N4CCCCC4)ccc23)c1
output: -76.2% (active)

input: Indicate its recorded growth; the compound in question is CC/C=C1/C(=O)C=C[C@@H]1C/C=C\CCCC(=O)O
output: 19.9% (inactive)

* * *

Test system: IGROV1 ovarian
Test: NCI-60 one-dose screen, 48 h
Conditions: 10 µM unless noted
This is part of a sample that, as a whole, favours compounds with a hit. Of some 83,000 tested, about 20% had one in any assay. Activity calls are given as the source filed them. How the source made its calls: active means growth percent below 10; inactive means the rest.
Returns: one label drawn from active, inactive

Solved cases (3 shown):
compound=COc1ccc(-c2nc(SCCC(C)C)nc(N/N=C\c3ccccc3O)c2C#N)cc1 category=inactive
compound=O=C1/C(=C\c2c[nH]c3ccccc23)c2ccccc2N1c1c(Cl)cccc1Cl category=inactive
compound="Cc1ccc(NS(=O)(=O)c2ccc3c(c2)C2OCCC2C(c2ccc(C(=O)C(C)C)cc2)N3)cc1C (stereo not given)" category=inactive

input: What did this assay record as the result for CN1CCN(CCCOc2ccc3nc(Nc4ccc(F)c(F)c4)ccc3c2)CC1 ?
output: inactive

input: What did this assay record as the result for Cc1ccc(/C=C/c2c(C(=O)/C=C/c3ccc(C(F)(F)F)cc3)c(C)nc3ccccc23)cc1 ?
output: active

* * *

Tested on: CCRF-CEM leukemia
Experiment: NCI-60 one-dose screen, 48 h
Conditions: 10 µM unless noted
About 83,000 compounds went through this panel and 20% of them were active in at least one assay; those are over-represented in the sample as a whole. Calls of active or inactive are those of the source. Rule for the calls: active = growth percent below 10; inactive = the rest.
Returns: one label drawn from TRUE for active, FALSE for inactive

Solved cases (2 shown):
molecule=O=C1Nc2ccccc2/C1=C/c1cn(C(=O)c2ccc(Cl)cc2)c2ccccc12 category=FALSE
molecule=COc1ccc(/C=C/c2c(C(=O)/C=C/c3ccc(F)cc3)c(C)nc3ccccc23)cc1 category=TRUE

input: What did this assay record as the result for CC(C)(C)C(CCc1ccc(Cl)cc1)N1CCN(C2CCCCC2)CC1 (centres undefined) ?
output: FALSE

input: What did this assay record as the result for Cc1ccc(/C=C/c2c(C(=O)/C=C/c3ccc(C(F)(F)F)cc3)c(C)nc3ccccc23)cc1 ?
output: TRUE

input: What did this assay record as the result for Nc1n[nH]c2cc(F)c([C@@H]3Nc4c(F)cc5[nH]ncc5c4[C@H]4C5CCC(C5)[C@@H]34)cc12 (some centres undefined) ?
output: FALSE

input: What did this assay record as the result for CN(C)CCC=C1c2ccccc2C(C)(C)c2ccccc21 ?
output: FALSE

input: What did this assay record as the result for Cc1nc2c(c(N3CCCc4ccccc43)n1)CCC2 ?
output: TRUE

input: What did this assay record as the result for COc1cc(-c2nn(-c3ccccc3)cc2-c2ccnc(NCCNS(=O)(=O)c3ccc(Cl)cc3)n2)ccc1Cl ?
output: FALSE

input: What did this assay record as the result for COc1ccc(C2c3ccc4ccccc4c3Oc3nc(C)[nH]c(=O)c32)cc1 (centres undefined) ?
output: FALSE

input: What did this assay record as the result for C[n+]1cc2cc(C(N)=O)[nH]c3c(=N)c(Cl)c(N)c1c23 ?
output: FALSE

input: What did this assay record as the result for Cc1cc(NCc2cc(Nc3ccnc4cc(Cl)ccc34)ccc2F)nc(N2CCN(c3ccccc3)CC2)n1 ?
output: TRUE

input: What did this assay record as the result for CCC(CO)Nc1nc2ccc(Cl)cc2c2ccccc12 (centres undefined) ?
output: FALSE

input: What did this assay record as the result for CCCCCCCOc1c(OC)cc(C2CC(=O)Nc3c2c(C)nn3-c2nc3ccccc3[nH]2)cc1OC (centres undefined) ?
output: FALSE

input: What did this assay record as the result for CN(C)CCNc1nc2ccccc2c2c1c1c(n2Cc2ccccc2)-c2ccccc2C1=O ?
output: TRUE

input: What did this assay record as the result for Nc1cc2c3c(cccc3c1)C(=O)N(CCN1CCCC1)C2=O ?
output: FALSE

input: What did this assay record as the result for CSc1n(Cc2ccc3ccccc3c2)c(C)c[n+]1Cc1ccc2ccccc2c1 ?
output: TRUE

input: What did this assay record as the result for COc1cccc(-c2nc3sccn3c2-c2ccnc(NCCNS(=O)(=O)c3ccc(C(F)(F)F)cc3)c2)c1 ?
output: FALSE

input: What did this assay record as the result for CCOC(=O)C/C(C)=N\NC(=O)c1ccncc1 ?
output: FALSE

input: What did this assay record as the result for Cc1ccc(NS(=O)(=O)c2ccc3c(c2)C(=O)CC(c2ccc(C(=O)C(C)C)cc2)N3)cc1C (centres undefined) ?
output: FALSE

input: What did this assay record as the result for Cc1cc(O)c(C2=NN(c3ccc(S(N)(=O)=O)cc3)C(c3ccccc3Cl)C2)cc1Cl (centres undefined) ?
output: TRUE

input: What did this assay record as the result for CCc1ccccc1NC(=O)/C(C#N)=C/c1ccc(OC)cc1 ?
output: FALSE

input: What did this assay record as the result for FC(F)(F)c1cc(Nc2ccc3cc(OCCCN4CCOCC4)ccc3n2)ccc1Cl ?
output: TRUE
